The origin of these recorded values is PubChem BioAssay (NCI).

- System: MALME-3M melanoma
- test.method.notes: NCI tumour cell line growth inhibition, 48 h
Field: TGI. Provide a value for each of the molecules that follow.

INSERT INTO measurements (molecule, result) VALUES
  ('CN1CCC23c4ccccc4NC1C21CCN(C)C3Nc2ccccc21', '> 337 µM'),
  ('O=C(CSc1nc2sc3c(c2c(=O)n1-c1ccccc1)CCCCC3)N/N=C/c1ccc(F)cc1', '5.86 µM'),
  ('COc1ccc(C2c3cc4c(cc3OC(O)(CO)C2C(=O)O)OCO4)c(OC)c1OC (centres undefined) (tested in a mixture with another compound)', '> 100 µM');

Request: Provide the documented TGI with MALME-3M melanoma as the system for "COc1cc2c(cc1OCCCCCN1CCN(c3cc(=O)oc4c(C)c(OC)ccc34)CC1)N=C[C@@H]1CCCN1C2=O"
Response: 0.0531 µM

###

- Tested on: HOP-92 NSCLC
- test.method.notes: NCI tumour cell line growth inhibition, 48 h; in the data active = GI50 below about 0.43 µM; inactive = the rest
The reply should be one of these categories: active, inactive

Worked set:
INSERT INTO assay_data (smiles_str, system, category_label) VALUES
  ('CCC(=O)Nc1ccc2c(c1)CN1C(=O)c3ccccc3C1=N2', 'HOP-92 NSCLC', 'inactive'),
  ('CCC[C@H](Nc1nc(-c2ccc(NC(=O)NCC)c(OC)c2)ncc1C)c1cccnc1', 'HOP-92 NSCLC', 'active'),
  ('O=C(CSc1nc2sc3c(c2c(=O)n1-c1ccccc1)CCCCC3)N/N=C/c1ccc(F)cc1', 'HOP-92 NSCLC', 'inactive'),
  ('COc1cc(C(=O)O)ccc1NC(=O)[C@@H]1N[C@@H](CC(C)(C)C)[C@](C#N)(c2ccc(Cl)cc2F)[C@H]1c1cccc(Cl)c1F', 'HOP-92 NSCLC', 'inactive'),
  ('Cc1c(N(C(=O)c2cc(-c3cc(Cl)ccc3C(=O)N3Cc4ccccc4C[C@H]3CN3CCOCC3)n(C)c2C)c2ccc(O)cc2)cc(C#N)n1C', 'HOP-92 NSCLC', 'inactive');

Request: Test call, this molecule: "C=C1C(=O)O[C@H]2[C@H]1CC/C(Cn1cc(Cn3ccc4cc(Cl)ccc43)nn1)=C\CC[C@@]1(C)O[C@@H]21"
Response: inactive

Request: Try "CCC[CH2][Sn]([CH2]CCC)([O]C(=O)c1cccc(F)c1F)[O][Sn]([CH2]CCC)([CH2]CCC)[O]C(=O)c1cccc(F)c1F" next.
Response: active

Request: Try "Cc1cc(Nc2nc(N3CCOCC3)nc3ccccc23)n[nH]1" next.
Response: inactive

###

- Tested on: ACHN renal
- test.method.notes: NCI tumour cell line growth inhibition, 48 h
recorded.metric: TGI

Guide cases for TGI, answers given:
INSERT INTO results (compound, result) VALUES
  ('Cc1nc2c(s/c(=N\N)n2-c2ccccc2)c(=O)[nH]1', '> 100 µM'),
  ('CC1(C)OC(=O)C=C(O)O1.CC1(C)OC(=O)C=C(O)O1.CCO.Oc1ccc2c(c1)CCC2.[Ti]', '> 100 µM'),
  ('CC1=C(C#N)C(=O)N(/N=C/c2ccc(Cl)cc2)C(=O)/C1=c1\o/c(=C2/C(=O)N(/N=C/c3ccc(Cl)cc3)C(=O)C(C#N)=C2C)c2nccnc12', '> 100 µM'),
  ('C[C@]12CC[C@@H]3c4ccc(OCC(=O)O)cc4CC[C@H]3[C@@H]1CCC2=O', '> 100 µM'),
  ('Cc1c(Cl)c(=O)oc2cc(OCC(=O)c3ccccc3)ccc12', '> 100 µM');

Provide the reported TGI of each entry below, same order.
1. O=C1CS(=O)(=O)C(c2cccc(Oc3ccccc3)c2)N1c1cccc(Cl)c1Cl (stereo not drawn)
2. O=S(=O)(NCCNc1cc(-c2cn(-c3ccccc3)nc2-c2cccc(O)c2)ccn1)c1ccc(F)cc1
3. Cc1ccc(S(=O)(=O)Oc2coc(CO)cc2=O)cc1
4. COc1cc2c(cc1OCCCCCN1CCN(c3cc(=O)oc4c(C)c(OC)ccc34)CC1)N=C[C@@H]1CCCN1C2=O
5. CO[C@H]1C[C@@H]2CC[C@@H](C)[C@@](O)(O2)C(=O)C(=O)N2CCCC[C@H]2C(=O)O[C@H]([C@H](C)C[C@@H]2CC[C@@H](OC(=O)C(C)(CO)CO)[C@H](OC)C2)CC(=O)[C@H](C)/C=C(\C)[C@@H](O)[C@@H](OC)C(=O)[C@H](C)C[C@H](C)/C=C/C=C/C=C/1C
6. c1ccc2c(OCC3CO3)ccc(OCC3CO3)c2c1 (stereo not drawn)
7. CC(C)C1=CC(=O)C(C)(C2=NC(C)(C)CO2)c2ccccc21 (stereo not drawn)
8. C=C1C(=O)O[C@H]2[C@H]1CC/C(COC(=O)NCCc1c[nH]c3ccccc13)=C\CC[C@@]1(C)O[C@@H]21

Response:
1: 43.6 µM; 2: 7.34 µM; 3: 38.2 µM; 4: 0.256 µM; 5: > 100 µM; 6: 6.48 µM; 7: > 100 µM; 8: 2.71 µM

###

- System: HOP-62 NSCLC
- test.method.notes: NCI tumour cell line growth inhibition, 48 h
recorded.metric: TGI

Guide cases for TGI, answers given:
INSERT INTO assay_data (molecule, system, recorded_metric, result) VALUES
  ('c1cncc(-c2cc(-c3cc(-c4cccnc4)n[nH]3)[nH]n2)c1', 'HOP-62 NSCLC', 'TGI', '> 100 µM'),
  ('COc1cc(N)ccc1Nc1c2ccccc2nc2ccccc12', 'HOP-62 NSCLC', 'TGI', '27.9 µM'),
  ('COc1ccc(C2c3cc4c(cc3OC(O)(CO)C2C(=O)O)OCO4)c(OC)c1OC (stereo unspecified) (tested in a mixture with another compound)', 'HOP-62 NSCLC', 'TGI', '> 100 µM');

Provide the reported TGI of each entry below, same order.
1. C/C=C/C/C=C/CCC(=O)C1OC1C(N)=O (stereo unspecified)
2. Cc1nc2c(s/c(=N\N)n2-c2ccccc2)c(=O)[nH]1
3. CCOC(=O)CCc1c(C)c2ccc(O)cc2oc1=O
4. O=C(/C=C/c1ccc2c(c1)OCO2)c1ccccc1

Response:
15.8 µM
> 100 µM
> 100 µM
80.9 µM

###

- System: CAKI-1 renal
- test.method.notes: NCI tumour cell line growth inhibition, 48 h
recorded.metric: log10 of TGI (log10 of the value in µM)
Please interpret these as log10 of TGI where TGI is in µM.

Guide cases for log10 of TGI, answers given:
INSERT INTO measurements (molecule, system, numeric_value) VALUES
  ('O=C1CC(N2C(=O)/C(=C/C(Cl)=C\c3ccc([N+](=O)[O-])cc3)SC2=S)C(=O)N1c1ccc(Cl)cc1 (stereo unspecified)', 'CAKI-1 renal', 0.52),
  ('N#C/C(=C\c1ccc(Br)cc1)n1nnc2cc(F)c(F)cc21', 'CAKI-1 renal', 0.45),
  ('CCC[C@H](Nc1nc(-c2ccc(NC(=O)NCC)c(OC)c2)ncc1C)c1cccnc1', 'CAKI-1 renal', 1.38),
  ('CC(=O)C1=C(O)C2(O)C(=O)c3c(c(C)c4ccc(C)c(O)c4c3O)CC2C(N)C1=O (stereo unspecified)', 'CAKI-1 renal', 0.90),
  ('COc1cc2c(cc1OCCCCCN1CCN(c3cc(=O)oc4c(C)c(OC)ccc34)CC1)N=C[C@@H]1CCCN1C2=O', 'CAKI-1 renal', -0.27);

Provide the reported log10 of TGI of each entry below, same order.
1. COc1cc(/C=C2\C[C@H]3[C@@H]4CC=C5C[C@@H](OC(C)=O)CC[C@]5(C)[C@H]4CC[C@]3(C)[C@H]2OC(C)=O)ccc1OCCCn1ccnc1
2. CCCCCCCCO/N=C\c1c2c(O)c3c(O)c(C)c4c(c3c1O)C(=O)C(C)(O/C=C\C(OC)C(C)C(OC(C)=O)C(C)C(O)C(C)C(O)C(C)/C=C\C=C(\C)C(=O)N2)O4 (stereo unspecified)

Response:
1. 1.20
2. 0.70

###

- Test system: CCRF-CEM leukemia
- test.method.notes: NCI tumour cell line growth inhibition, 48 h; in the data active means GI50 below about 0.43 µM; inactive means the rest
The reply should be one of these categories: label 1 (active), label 0 (inactive)

INSERT INTO assay_data (smiles_str, category_label) VALUES
  ('COc1cc2c(cc1OCCCCCN1CCN(c3cc(=O)oc4c(C)c(OC)ccc34)CC1)N=C[C@@H]1CCCN1C2=O', 'label 1'),
  ('C[C@@H](Oc1cc(-c2cnn(C3CC4(CCNCC4)C3)c2)cnc1N)c1c(F)ccc(Cl)c1Cl', 'label 0'),
  ('O=C(Nc1cccc(-c2nc3ccccc3[nH]2)c1)c1cccc(NC(=O)c2ccco2)c1', 'label 0');

Request: Test call, this molecule: "Cc1c(N(C(=O)c2cc(-c3cc(Cl)ccc3C(=O)N3Cc4ccccc4C[C@H]3CN3CCOCC3)n(C)c2C)c2ccc(O)cc2)cc(C#N)n1C"
Response: label 0

Request: Try "O=C(c1cccs1)c1c(C(F)(F)F)n([O-])c2cc(C(F)(F)F)ccc2[n+]1=O" next.
Response: label 1

Request: Try "O=C(/C=C/c1ccc2c(c1)OCO2)c1ccccc1" next.
Response: label 0

Request: Try "N#C/C(=C\c1ccc(Cl)cc1)n1nnc2cc(F)c(F)cc21" next.
Response: label 0

Request: Try "C/C(=C\c1ccn(-c2ccc(N)cc2C(F)(F)F)n1)[C@@H]1C[C@@H]2O[C@]2(C)CCC[C@H](C)[C@H](O)[C@@H](C)C(=O)C(C)(C)[C@@H](O)CC(=O)O1" next.
Response: label 1
